molecular target: Glutamate [NMDA] receptor; test: The compound was tested for its ability to block PCP N-methyl-D-aspartate glutamate receptor at the PCP (phencyclidine) binding site in postmortem human frontal cortex.
Would you kindly list Ki for each of these compounds?

Examples with their reported Ki follow.
CC(C)(C)N1CCC(c2ccccc2)(c2ccccc2)CC1 [BUDIPINE]
11.7 µM
NC12CC3CC(C1)CC(c1ccccc1)(C3)C2
15.2 µM
NCCCCC12CC3CC(CC(C3)C1)C2
17.4 µM
CN(C)C12CC3CC(CC(C3)C1)C2
20.8 µM
CCC12CC3CC(N)(C1)CC(c1ccccc1)(C3)C2 (centres undefined)
4.08 µM
Cc1ccccc1C(OCCN(C)C)c1ccccc1 (centres undefined) [ORPHENADRINE]
6 µM
NCCC12CC3CC(CC(C3)C1)C2
3.8 µM
CC12CC3CC(C)(C1)CC(CCN)(C3)C2
0.79 µM

Now look at this entry.
Problem: Please report Ki for the following compound: CC(C)C12CC3CC(CC(N)(C3)C1)C2
Solution: 7.21 µM
